UniProt:P21462: recorded Ki for assorted compounds
Sequence (P21462 whole entry): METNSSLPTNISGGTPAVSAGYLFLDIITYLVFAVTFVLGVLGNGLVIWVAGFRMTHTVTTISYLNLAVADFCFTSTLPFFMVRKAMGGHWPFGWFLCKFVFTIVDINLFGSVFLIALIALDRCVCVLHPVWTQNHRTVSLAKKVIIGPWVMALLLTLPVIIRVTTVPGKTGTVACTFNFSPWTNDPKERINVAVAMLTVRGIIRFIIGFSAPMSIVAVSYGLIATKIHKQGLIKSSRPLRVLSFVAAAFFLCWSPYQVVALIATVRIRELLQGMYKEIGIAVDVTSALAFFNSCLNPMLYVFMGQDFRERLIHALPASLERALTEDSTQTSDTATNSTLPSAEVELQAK

{"COMPOUND": "O=C(O)CCCN1C(=O)C(=O)C(C(=O)c2ccccc2)C1/C=C/c1ccccc1 (stereo unspecified)", "TESTED TARGET": "UniProt:P21462", "COMPARATOR": ">", "Ki / µM": 44.3}
{"COMPOUND": "COc1ccc(C2C(C(=O)c3cccs3)C(=O)C(=O)N2CCCn2ccnc2)cc1 (stereo unspecified)", "TESTED TARGET": "UniProt:P21462", "COMPARATOR": "=", "Ki / µM": 4.7}
{"COMPOUND": "COCCN1C(=O)C(=O)C(C(=O)c2ccccc2)C1c1cc(OC)ccc1OC (stereo unspecified)", "TESTED TARGET": "UniProt:P21462", "COMPARATOR": "=", "Ki / µM": 1.8}
{"COMPOUND": "O=C1C(=O)N(CCCN2CCOCC2)C(c2cccnc2)C1C(=O)c1cc2ccccc2o1 (stereo unspecified)", "TESTED TARGET": "UniProt:P21462", "COMPARATOR": ">", "Ki / µM": 44.3}
{"COMPOUND": "CCCCCCN1C(=O)C(=O)C(C(=O)c2ccccc2)C1c1ccc(O)c(OC)c1 (stereo unspecified)", "TESTED TARGET": "UniProt:P21462", "COMPARATOR": "=", "Ki / µM": 4.7}
{"COMPOUND": "CC(=O)C1C(=O)C(=O)N(CCc2c(C)[nH]c3ccccc23)C1c1cccc(F)c1 (stereo unspecified)", "TESTED TARGET": "UniProt:P21462", "COMPARATOR": "=", "Ki / µM": 11.2}
{"COMPOUND": "COc1ccc(C2C(C(=O)c3cc4ccccc4o3)C(=O)C(=O)N2CCN(C)C)cc1OC (stereo unspecified)", "TESTED TARGET": "UniProt:P21462", "COMPARATOR": ">", "Ki / µM": 44.3}
{"COMPOUND": "Cc1ccc(C(=O)C2C(=O)C(=O)N(c3nnc(C)s3)C2c2ccc(C(C)C)cc2)cc1 (stereo unspecified)", "TESTED TARGET": "UniProt:P21462", "COMPARATOR": ">", "Ki / µM": 44.3}
{"COMPOUND": "CCCCCCOc1cccc(N2C(=O)C(=O)C(C(=O)c3ccccc3)C2c2cccc(F)c2)c1 (stereo unspecified)", "TESTED TARGET": "UniProt:P21462", "COMPARATOR": ">", "Ki / µM": 44.3}
{"COMPOUND": "Cc1ccc(N2C(=O)C(=O)C(C(=O)c3ccccc3)C2c2cccc(F)c2)cc1Br (stereo unspecified)", "TESTED TARGET": "UniProt:P21462", "COMPARATOR": ">", "Ki / µM": 44.3}
{"COMPOUND": "COCCCN1C(=O)C(=O)C(C(=O)c2ccccc2)C1c1ccc(O)c(OC)c1 (stereo unspecified)", "TESTED TARGET": "UniProt:P21462", "COMPARATOR": "=", "Ki / µM": 33}
{"COMPOUND": "COc1ccc(OC)c(C2C(C(=O)c3ccc(C)cc3)C(=O)C(=O)N2CCC(=O)O)c1 (stereo unspecified)", "TESTED TARGET": "UniProt:P21462", "COMPARATOR": ">", "Ki / µM": 44.3}
{"COMPOUND": "COc1cc(C2C(C(C)=O)C(=O)C(=O)N2c2ccc(Br)cc2)ccc1O (stereo unspecified)", "TESTED TARGET": "UniProt:P21462", "COMPARATOR": ">", "Ki / µM": 44.3}
{"COMPOUND": "COc1ccc(C2C(C(=O)c3ccccc3)C(=O)C(=O)N2CCCn2ccnc2)c(OC)c1 (stereo unspecified)", "TESTED TARGET": "UniProt:P21462", "COMPARATOR": "=", "Ki / µM": 3.4}
{"COMPOUND": "O=C1C(=O)N(c2ccc(F)cc2)C(c2ccc(Br)cc2)C1C(=O)c1ccccc1 (stereo unspecified)", "TESTED TARGET": "UniProt:P21462", "COMPARATOR": ">", "Ki / µM": 44.3}
{"COMPOUND": "COc1ccc(C2C(C(=O)c3ccccc3)C(=O)C(=O)N2c2cccc(Cl)c2)c(OC)c1 (stereo unspecified)", "TESTED TARGET": "UniProt:P21462", "COMPARATOR": "=", "Ki / µM": 31.1}
{"COMPOUND": "COc1ccc(C2C(C(=O)c3ccco3)C(=O)C(=O)N2CCN2CCOCC2)c(OC)c1 (stereo unspecified)", "TESTED TARGET": "UniProt:P21462", "COMPARATOR": "=", "Ki / µM": 6.4}
{"COMPOUND": "COc1ccc(C(=O)C2C(=O)C(=O)NC2c2ccc(OC)cc2OC)cc1 (stereo unspecified)", "TESTED TARGET": "UniProt:P21462", "COMPARATOR": ">", "Ki / µM": 44.3}
{"COMPOUND": "O=C1C(=O)N(CN2CCOCC2)C(c2ccc(Br)cc2)C1C(=O)c1ccccc1 (stereo unspecified)", "TESTED TARGET": "UniProt:P21462", "COMPARATOR": ">", "Ki / µM": 44.3}
{"COMPOUND": "COc1ccc(OC)c(C2C(C(=O)c3ccccc3)C(=O)C(=O)N2c2cccnc2)c1 (stereo unspecified)", "TESTED TARGET": "UniProt:P21462", "COMPARATOR": "=", "Ki / µM": 6}
{"COMPOUND": "Cc1ccc(C(=O)C2C(=O)C(=O)N(Cc3cccnc3)C2c2ccc(Br)cc2)cc1 (stereo unspecified)", "TESTED TARGET": "UniProt:P21462", "COMPARATOR": ">", "Ki / µM": 44.3}
